experiment: Critical relative humidity of additives by moisture sorption analyzer (Test Example 1); format: physicochemical; details: of the additive (excipient) alone, moisture sorption analyzer DVS-1
Parameter: Critical relative humidity (%, at 25° C.)

Short answer for OC[C@@H](O)[C@@H](O)[C@H](O)[C@@H](O)CO : Critical relative humidity (%, at 25° C.) was 50-60%

Please fill in: Critical relative humidity (%, at 25° C.) reported for OC[C@H]1O[C@@](CO)(O[C@H]2O[C@H](CO)[C@@H](O)[C@H](O)[C@H]2O)[C@@H](O)[C@@H]1O = 85 or more %

Reported Critical relative humidity (%, at 25° C.) of OC[C@@H](O)[C@@H](O)[C@H](O)[C@H](O)CO : 95 or more %

Critical relative humidity (%, at 25° C.) measured on OC[C@@H](O)[C@H](O)[C@@H](O)CO = 75-85%

Record O.OC[C@H]1O[C@@H](O[C@H]2[C@H](O)[C@@H](O)C(O)O[C@@H]2CO)[C@H](O)[C@@H](O)[C@H]1O (some centres unmarked) [Lactose hydrate, lactose hydrate] . Reported Critical relative humidity (%, at 25° C.): 95 or more %
